Source listed as a melting point compilation (Tetko et al.; mined from patent text by program, amines drawn as free bases though some values may be those of a salt).

observable: melting point

{"molecule": "Cc1cccc(CON2C(C)(C)CC(O)CC2(C)C)c1", "observable": "melting point", "measured.value": "66 to 67 °C"}
{"molecule": "CSc1c(Cl)ccc(C(=O)O)c1F", "observable": "melting point", "measured.value": "183 to 185 °C"}
{"molecule": "COc1ccc(C2SCc3c(sc(N)c3C(=O)c3cccs3)S2)cc1 (configuration not stated)", "observable": "melting point", "measured.value": "138 to 140 °C"}
{"molecule": "CC(C)(C)OC(=O)N1CCC(Oc2cncc(Cl)n2)CC1", "observable": "melting point", "measured.value": "86 to 87 °C"}
{"molecule": "CC(=O)c1c(O)ccc2[nH]ncc12", "observable": "melting point", "measured.value": "188 to 191 °C"}
{"molecule": "CC(=O)N(C)C(=N[N+](=O)[O-])N(Cc1cnc(Cl)s1)C(C)=O", "observable": "melting point", "measured.value": "72 to 74 °C"}
{"molecule": "CC1(C)CCCC=C1c1ccc(C(=O)O)cc1", "observable": "melting point", "measured.value": "181 °C"}
{"molecule": "COC(=O)CC(C#Cc1ccc(C(=O)O)cc1)c1ccc(OC)c(OC2CCCC2)c1 (racemic)", "observable": "melting point", "measured.value": "109 to 110 °C"}
{"molecule": "CCCc1nc2c(N)nc3c(c2n1CCCCC(=O)N1CCOCC1)CCCC3", "observable": "melting point", "measured.value": "158 to 160 °C"}
{"molecule": "Cc1cc(NC(=O)c2ccc(F)cc2)c(C)cc1N", "observable": "melting point", "measured.value": "174 to 176 °C"}
{"molecule": "O=C(Nc1ccccc1OC(=O)c1ccccc1)c1cc(Cl)c(OC(=O)c2ccccc2)c(Cl)c1", "observable": "melting point", "measured.value": "157 to 160 °C"}
{"molecule": "Cc1cc(-c2cscn2)ccc1-c1cc(C(F)(F)F)nn1-c1ccc(S(C)(=O)=O)cc1", "observable": "melting point", "measured.value": "175 °C"}
{"molecule": "OC1CCCCC1c1ccccc1 (configuration not stated)", "observable": "melting point", "measured.value": "55 to 57 °C"}
{"molecule": "Cn1c(=O)oc2cc3c(cc21)OCC31C(=O)N(CC2CCCO2)c2ccccc21 (configuration not stated)", "observable": "melting point", "measured.value": "186 to 187 °C"}
{"molecule": "CNc1ccc2c(c1)nc(CCc1ccc(C#N)cc1)n2C", "observable": "melting point", "measured.value": "155 to 158 °C"}
{"molecule": "COCc1noc(-c2ncn3c2[C@@H]2CCCN2C(=O)c2c(Cl)cccc2-3)n1", "observable": "melting point", "measured.value": "168 to 170 °C"}
{"molecule": "CCCCCCCCCCCCCCNC(=S)NC(=O)c1ccc(C#N)cc1", "observable": "melting point", "measured.value": "78 to 80 °C"}
{"molecule": "O=C1c2ccccc2CCC1CN1CCC(O)(c2ccc(Cl)cc2)CC1 (configuration not stated)", "observable": "melting point", "measured.value": "227 to 228 °C"}
{"molecule": "CCNC(=O)Nc1cccc(Oc2nnc([C@@H](C)NS(=O)(=O)c3ccc(Cl)c(Cl)c3)n2CC)c1", "observable": "melting point", "measured.value": "118 to 120 °C"}
{"molecule": "Cc1ccc(S(=O)(=O)OCC2Cc3cccc(O)c3O2)cc1 (configuration not stated)", "observable": "melting point", "measured.value": "122 to 125 °C"}
{"molecule": "Cc1cccc(N)c1C=C(Br)Br", "observable": "melting point", "measured.value": "42 to 43 °C"}
{"molecule": "C=C(C)CSCC(C)C1CC=C2C3=C(CCC21C)C1(C)CCC(O)C(C)(C)C1CC3 (configuration not stated)", "observable": "melting point", "measured.value": "128 to 132 °C"}
